Test: PK test on cynomolgus monkeys
Format: in vivo
Details: male, cynomolgus monkey, plasma, po, 2.5 mg/kg
OUTCOME MEASURE: AUC(0-t) (ng·h/mL)
// note: answer is a bare numeric in ng·h/mL

COC(=O)C1=C(CN2CCN3C(=O)N(c4ccc(C(=O)O)c(F)c4)C[C@@H]3C2)NC(c2nccs2)=N[C@H]1c1ccc(F)cc1Cl :: 3380

Query compound follows.
Please give the measured AUC(0-t) for this compound: COC(=O)C1=C(CN2CCN3C(=O)N(c4ccc(C(=O)O)cc4)C[C@@H]3C2)NC(c2nccs2)=N[C@H]1c1ccc(F)cc1Cl [Control compound, reference compound]
647
